In this section, each of the compounds is paired with its reported pIC50.
Biological target: Serine/threonine-protein kinase Nek1 (Homo sapiens, UniProt Q96PY6)
Sequence (Q96PY6 whole entry, the tested form may be a part): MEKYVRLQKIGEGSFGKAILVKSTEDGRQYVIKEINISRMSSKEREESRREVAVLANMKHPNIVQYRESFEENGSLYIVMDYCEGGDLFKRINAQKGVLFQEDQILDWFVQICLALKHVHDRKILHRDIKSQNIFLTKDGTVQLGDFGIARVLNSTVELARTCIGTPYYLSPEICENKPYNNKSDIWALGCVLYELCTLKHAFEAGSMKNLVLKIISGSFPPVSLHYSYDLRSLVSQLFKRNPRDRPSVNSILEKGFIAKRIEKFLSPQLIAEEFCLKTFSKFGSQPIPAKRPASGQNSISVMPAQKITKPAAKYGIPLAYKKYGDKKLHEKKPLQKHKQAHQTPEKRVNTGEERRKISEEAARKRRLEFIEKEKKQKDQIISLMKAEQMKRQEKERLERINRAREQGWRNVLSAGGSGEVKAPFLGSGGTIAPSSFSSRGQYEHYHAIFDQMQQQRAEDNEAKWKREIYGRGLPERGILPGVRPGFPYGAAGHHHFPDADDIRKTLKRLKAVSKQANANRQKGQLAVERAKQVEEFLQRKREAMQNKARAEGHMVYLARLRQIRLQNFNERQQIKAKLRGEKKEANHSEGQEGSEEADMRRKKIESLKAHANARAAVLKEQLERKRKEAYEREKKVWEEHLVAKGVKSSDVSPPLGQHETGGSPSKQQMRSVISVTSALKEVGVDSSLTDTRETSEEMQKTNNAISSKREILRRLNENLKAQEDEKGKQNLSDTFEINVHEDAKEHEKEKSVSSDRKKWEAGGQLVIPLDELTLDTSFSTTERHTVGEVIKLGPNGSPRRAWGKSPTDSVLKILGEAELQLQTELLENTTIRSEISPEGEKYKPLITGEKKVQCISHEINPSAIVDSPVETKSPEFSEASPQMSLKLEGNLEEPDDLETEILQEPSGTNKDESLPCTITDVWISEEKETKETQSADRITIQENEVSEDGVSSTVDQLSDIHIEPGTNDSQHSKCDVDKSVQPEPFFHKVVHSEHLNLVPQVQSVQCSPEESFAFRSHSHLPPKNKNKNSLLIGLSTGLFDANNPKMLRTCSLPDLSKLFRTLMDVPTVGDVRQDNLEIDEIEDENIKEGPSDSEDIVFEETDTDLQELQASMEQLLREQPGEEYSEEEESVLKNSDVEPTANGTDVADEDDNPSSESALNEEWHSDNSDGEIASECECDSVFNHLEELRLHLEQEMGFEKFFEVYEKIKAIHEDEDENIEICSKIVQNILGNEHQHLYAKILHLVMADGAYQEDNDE
Experiment: Inhibition of human recombinant NEK1 (1 to 505 residues) using ULight-p70 S6K peptide as substrate incubated for 30 mins by LANCE Ultra TR-FRET assay
pIC50: −log10 of the molar value.

>  <structure-string>
CCN(CC)CCNS(=O)(=O)c1ccc(-c2ccnc3[nH]ccc23)cc1

>  <pIC50>
5.00

$$$$

Answer briefly: pIC50 recorded on Serine/threonine-protein kinase Nek1 (Homo sapiens, UniProt Q96PY6) for `CN1CCN(S(=O)(=O)c2ccc(-c3ccnc4[nH]ccc34)cc2)CC1`
< 5.00

Recall the reported pIC50 of `COCCNS(=O)(=O)c1ccc(-c2ccnc3[nH]ccc23)cc1` on Serine/threonine-protein kinase Nek1 (Homo sapiens, UniProt Q96PY6) and write it down.
< 4.52
